target: Dihydrofolate reductase (Rattus norvegicus); assay: Concentration required to inhibit the rat liver Dihydrofolate reductase by 50% was determined; Range: 250-300
Sequence (Q920D2 whole entry): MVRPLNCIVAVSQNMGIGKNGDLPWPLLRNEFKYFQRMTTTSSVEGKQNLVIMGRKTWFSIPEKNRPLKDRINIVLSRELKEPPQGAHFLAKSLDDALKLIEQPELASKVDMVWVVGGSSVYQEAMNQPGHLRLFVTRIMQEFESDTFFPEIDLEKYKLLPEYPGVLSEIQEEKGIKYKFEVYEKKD
result_type: pIC50
Convention used: pIC50 is expressed as -log10 of the molar concentration.

Problem: What value of measured pIC50 is listed for `Nc1nc(N)c2nc(CN3c4ccccc4C=Cc4cc(OCC(=O)O)ccc43)cnc2n1` ?
Solution: 6.55

====

target: Dihydrofolate reductase (Rattus norvegicus); assay: Concentration required to inhibit the rat liver Dihydrofolate reductase by 50% was determined; Range: 1100-1200
result_type: pIC50
Convention used: pIC50 is expressed as -log10 of the molar concentration.

Problem: What value of measured pIC50 is listed for `Nc1nc(N)c2nc(CN3c4ccccc4C=Cc4cc(OCCC(=O)O)ccc43)cnc2n1` ?
Solution: 5.96
